# TEST TARGET: rh beta tryptase (Homo sapiens)
# Sequence (Q15661 31-275): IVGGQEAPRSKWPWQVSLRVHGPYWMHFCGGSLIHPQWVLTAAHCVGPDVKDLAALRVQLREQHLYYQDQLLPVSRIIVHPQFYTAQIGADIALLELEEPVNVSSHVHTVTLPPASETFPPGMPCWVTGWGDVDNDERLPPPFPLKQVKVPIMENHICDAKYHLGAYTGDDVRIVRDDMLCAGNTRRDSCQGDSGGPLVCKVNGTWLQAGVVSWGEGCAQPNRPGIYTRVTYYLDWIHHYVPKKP
# ASSAY SUMMARY: tryptase inhibition test (cleavage of N-p-tosyl-Gly-Pro-Lys-para-nitroaniline, p-nitroaniline measured at 405 nm)
# PROTOCOL CONDITIONS: Tris HCl buffer pH 7.4 with calcium and heparin, 37° C., substrate 0.6 mM, 5 minutes pre-incubation, 5 minutes incubation
Counter-ions that a name gives are not always drawn.
ATTRIBUTE MEASURED: IC50 (nM)

Record excerpt, results attached:
CN(C)c1cccc2c(S(=O)(=O)N(Cc3cccnc3)c3ccc4c(c3)nc(CCc3ccc(C(=N)N)cc3)n4C)cccc12 [Example 23, dihydrochloride]; 13
CCOC(=O)c1ccc(S(=O)(=O)N(CCN(CC)CC)c2ccc3c(c2)nc(CCc2ccc(C(=N)N)cc2)n3C)cc1; 9.7
CCN(CC)CCN(c1ccc2c(c1)nc(CCc1ccc(C(=N)N)cc1)n2C)S(=O)(=O)c1ccc([N+](=O)[O-])cc1; 23
CCN(CC)CCN(c1ccc2c(c1)nc(CCc1ccc(C(=N)N)cc1)n2C)S(=O)(=O)c1cccc(C(C)(C)c2ccccc2)c1 [Example 19, dihydrochloride]; 8.8
CCN(CC)CCN(c1ccc2c(c1)nc(CCc1ccc(C(=N)N)cc1)n2C)S(=O)(=O)c1cccc(C)c1; 30
CCN(CC)CCN(c1ccc2c(c1)nc(CCc1ccc(C(=N)N)cc1)n2C)S(=O)(=O)c1cccc(Cl)c1; 30
CCN(CC)CCN(c1ccc2c(c1)nc(CCc1ccc(C(=N)N)cc1)n2C)S(=O)(=O)c1ccc(C(C)(C)C)cc1 [Example 21, dihydrochloride]; 4.1
CCN(CC)CCN(c1ccc2c(c1)nc(CCc1ccc(C(=N)N)cc1)n2C)S(=O)(=O)c1cccc([N+](=O)[O-])c1 [Example 28, dihydrochloride]; 44
CCN(CC)CCN(c1ccc2c(c1)nc(CCc1ccc(C(=N)N)cc1)n2C)S(=O)(=O)c1ccc2cc(O)ccc2c1 [Example 17, dihydrochloride]; 280
CCN(CC)CCN(c1ccc2c(c1)nc(CCc1ccc(C(=N)N)cc1)n2C)S(=O)(=O)c1cccc2cccc(Cl)c12 [Example 24, dihydrochloride]; 13

P. CN(C)c1cccc2c(S(=O)(=O)N(Cc3ccncc3)c3ccc4c(c3)nc(CCc3ccc(C(=N)N)cc3)n4C)cccc12 [Example 25, dihydrochloride]
Q. CN(C)c1cccc2c(S(=O)(=O)N(Cc3ccccn3)c3ccc4c(c3)nc(CCc3ccc(C(=N)N)cc3)n4C)cccc12 [Example 22, dihydrochloride]
R. CCN(CC)CCN(c1ccc2c(c1)nc(CCc1ccc(C(=N)N)cc1)n2C)S(=O)(=O)c1cccc(N)c1 [Example 29, dihydrochloride]
S. CCN(CC)CCN(c1ccc2c(c1)nc(CCc1ccc(C(=N)N)cc1)n2C)S(=O)(=O)c1cccc(OC)c1
QUERY: Arrange these compounds by their IC50, starting with the largest number. Kindly provide the labels arranged according to the requested ordering.
RESULT: R, P, S, Q
(R: 52 nM, P: 36 nM, S: 24 nM, Q: 14 nM)

1. CCN(CC)CCN(c1ccc2c(c1)nc(CCc1ccc(C(=N)N)cc1)n2C)S(=O)(=O)c1ccc(NC(C)=O)cc1
2. CCN(CC)CCN(c1ccc2c(c1)nc(CCc1ccc(C(=N)N)cc1)n2C)S(=O)(=O)c1ccc2cc(OC)ccc2c1
QUERY: Hi, I'm comparing two records. Which one has the lower IC50, 1 or 2 ? I would appreciate it if you answered with the label of your choice.
RESULT: 2
(2: 17.3 nM, 1: 44 nM)

P. CCN(CC)CCN(c1ccc2c(c1)nc(CCc1ccc(C(=N)N)cc1)n2C)S(=O)(=O)c1ccc(Cl)cc1
Q. CCN(CC)CCN(c1ccc2c(c1)nc(CCc1ccc(C(=N)N)cc1)n2C)S(=O)(=O)c1ccc(N)cc1
QUERY: // pick larger IC50 from pair: P vs Q I would appreciate it if you answered with the label of your choice.
RESULT: P
(P: 49 nM, Q: 34 nM)

a. CCN(CC)CCN(c1ccc2c(c1)nc(CCc1ccc(C(=N)N)cc1)n2C)S(=O)(=O)c1cccc(C(F)(F)F)c1 [Example 18, dihydrochloride]
b. Cn1c(CCc2ccc(C(=N)N)cc2)nc2cc(N(Cc3ccccc3)S(=O)(=O)c3ccc(C(C)(C)C)cc3)ccc21 [Example 26, dihydrochloride]
QUERY: // pick larger IC50 from pair: a vs b I would appreciate it if you answered with the label of your choice.
RESULT: a
(a: 43 nM, b: 7.6 nM)

a. CCN(CC)CCN(c1ccc2c(c1)nc(CCc1ccc(C(=N)N)cc1)n2C)S(=O)(=O)c1cccc(Br)c1
b. CCN(CC)CCN(c1ccc2c(c1)nc(CCc1ccc(C(=N)N)cc1)n2C)S(=O)(=O)c1cc(C(F)(F)F)cc(C(F)(F)F)c1 [Example 16, dihydrochloride]
QUERY: Hi, I'm comparing two records. Which one has the lower IC50, a or b ? I would appreciate it if you answered with the label of your choice.
RESULT: a
(a: 17 nM, b: 25 nM)
